Data provenance: patent US20250341517A1

Biological target: T1, Anti-CRP antibody(r)
T1 construct: also called rabbit IgG (CRP)
Assay: labelled peptide on antibody immobilised on microplate; antigen CRP
Ends that are not written are not given here. FAM = carboxyfluorescein (FAM) fluorescent label
This listing pairs binders with measured change (%) of fluorescence at bottom (B) of microplate.
Observation type: change (%) of fluorescence at bottom (B) of microplate

>  <Binder>
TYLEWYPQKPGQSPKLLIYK (not fully specified (N-terminus), Synthetic 20-mer homologous to the FR2 region of the light chain; The label differs between experiments; also called L1 switching peptide; first peptide compound L1) [L1 peptide]

>  <Unit>
%

>  <Data value>
-48.6

$$$$
>  <Binder>
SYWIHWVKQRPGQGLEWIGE (not fully specified (N-terminus), Synthetic 20-mer homologous to the FR2 region of the heavy chain; The fluorescent label differs between experiments; also called H1 switching peptide; third peptide compound H1) [H1 peptide]

>  <Unit>
%

>  <Data value>
-26.8

$$$$
>  <Binder>
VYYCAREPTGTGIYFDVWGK (not fully specified (N-terminus), Synthetic 20-mer homologous to the FR3 or FR4 region of the heavy chain; The label differs between experiments; also called H2 switching peptide; fourth peptide compound H2) [H2 peptide]

>  <Unit>
%

>  <Data value>
-39.5

$$$$
>  <Binder>
{FAM}-VYYCFQGSHVPFTK (Synthetic 14-mer homologous to the FR3 or FR4 region of the light chain; also called L2 switching peptide; second peptide compound L2) [L2 peptide]

>  <Unit>
%

>  <Data value>
-44.9

$$$$
